EXPERIMENT: activity coefficient (dimensionless); of the first substance listed, at infinite dilution; xn = mol fraction of the nth substance listed
TEST PARAMETERS: 343.15 K; Liquid; Chromatography; x1 = 0
I'd appreciate it if you could supply activity coefficient values for the items below.
Reply briefly: the number, and no unit.

For the compound CCc1ccccc1 [ethylbenzene] + Cn1cc[n+](COCCCOC[n+]2ccn(C)c2)c1.O=S(=O)([N-]S(=O)(=O)C(F)(F)F)C(F)(F)F.O=S(=O)([N-]S(=O)(=O)C(F)(F)F)C(F)(F)F , what activity coefficient is on record?
2.38

For the compound Cc1ccccc1 [toluene] + CCCCCCCCn1cc[n+](COCCCOC[n+]2ccn(CCCCCCCC)c2C)c1C.N#C[N-]C#N.N#C[N-]C#N , what activity coefficient is on record?
0.97

For the compound CCCCCCCCCCCCCC [tetradecane] + CCCOC[n+]1ccn(C)c1.F[B-](F)(F)F , what activity coefficient is on record?
2300

For the compound Cc1ccc(C)cc1 [1,4-dimethylbenzene] + CCCCCCCCn1cc[n+](COCCCOC[n+]2ccn(CCCCCCCC)c2C)c1C.O=S(=O)([N-]S(=O)(=O)C(F)(F)F)C(F)(F)F.O=S(=O)([N-]S(=O)(=O)C(F)(F)F)C(F)(F)F , what activity coefficient is on record?
0.73

For the compound C1COCCO1 [1,4-dioxane] + CCCCCCCCn1cc[n+](COCCC)c1C.N#C[N-]C#N , what activity coefficient is on record?
0.78

For the compound CCCC(C)=O [pentan-2-one] + N#C[N-]C#N.N#C[N-]C#N.c1ccc(Cn2cc[n+](COCCCOC[n+]3ccn(Cc4ccccc4)c3)c2)cc1 , what activity coefficient is on record?
3.08

---

EXPERIMENT: activity coefficient (dimensionless); of the first substance listed, at infinite dilution; xn = mol fraction of the nth substance listed
TEST PARAMETERS: 343.15 K; Liquid; Chromatography; x1 = 0
I'd appreciate it if you could supply activity coefficient values for the items below.
Reply briefly: the number, and no unit.

For the molecule CCc1ccccc1 [ethylbenzene] + CCCOC[n+]1ccn(Cc2ccccc2)c1.N#C[N-]C#N , what activity coefficient is on record?
3.32

For the molecule c1ccsc1 [thiophene] + CCCCCCCCn1cc[n+](COCCCOC[n+]2ccn(CCCCCCCC)c2C)c1C.O=S(=O)([N-]S(=O)(=O)C(F)(F)F)C(F)(F)F.O=S(=O)([N-]S(=O)(=O)C(F)(F)F)C(F)(F)F , what activity coefficient is on record?
0.38

For the molecule CCC(=O)CC [pentan-3-one] + CN(C)c1cc[n+](COCCCOC[n+]2ccc(N(C)C)cc2)cc1.O=S(=O)([N-]S(=O)(=O)C(F)(F)F)C(F)(F)F.O=S(=O)([N-]S(=O)(=O)C(F)(F)F)C(F)(F)F , what activity coefficient is on record?
0.7

For the molecule CCCCCCCCCCCC [dodecane] + N#C[N-]C#N.N#C[N-]C#N.c1ccc(Cn2cc[n+](COCCCOC[n+]3ccn(Cc4ccccc4)c3)c2)cc1 , what activity coefficient is on record?
600

For the molecule CC1CCCCC1 [methylcyclohexane] + CCCOC[n+]1ccn(Cc2ccccc2)c1.O=S(=O)([N-]S(=O)(=O)C(F)(F)F)C(F)(F)F , what activity coefficient is on record?
5.7

For the molecule CC(C)OC(C)C [diisopropyl ether] + CCCOC[n+]1ccc(N(C)C)cc1.O=S(=O)([N-]S(=O)(=O)C(F)(F)F)C(F)(F)F , what activity coefficient is on record?
4.12

---

EXPERIMENT: activity coefficient (dimensionless); of the first substance listed, at infinite dilution; xn = mol fraction of the nth substance listed
TEST PARAMETERS: 343.15 K; Liquid; Chromatography; x1 = 0
I'd appreciate it if you could supply activity coefficient values for the items below.

For the compound CO [methanol] + CCCOC[n+]1ccn(C)c1.F[B-](F)(F)F , what activity coefficient is on record?
1.11

For the compound CCC(C)=O [butanone] + CCCOC[n+]1ccn(C)c1.O=S(=O)([N-]S(=O)(=O)C(F)(F)F)C(F)(F)F , what activity coefficient is on record?
0.4

For the compound C#CCCCC [1-hexyne] + CN(C)c1cc[n+](COCCCOC[n+]2ccc(N(C)C)cc2)cc1.O=S(=O)([N-]S(=O)(=O)C(F)(F)F)C(F)(F)F.O=S(=O)([N-]S(=O)(=O)C(F)(F)F)C(F)(F)F , what activity coefficient is on record?
2.92

For the compound ClC(Cl)(Cl)Cl [tetrachloromethane] + CCCOC[n+]1ccc(N(C)C)cc1.O=S(=O)([N-]S(=O)(=O)C(F)(F)F)C(F)(F)F , what activity coefficient is on record?
1.95

For the compound ClC(Cl)(Cl)Cl [tetrachloromethane] + CCCOC[n+]1ccn(Cc2ccccc2)c1.O=S(=O)([N-]S(=O)(=O)C(F)(F)F)C(F)(F)F , what activity coefficient is on record?
1.81

For the compound CO [methanol] + CCCCCCCCn1cc[n+](COCCCOC[n+]2ccn(CCCCCCCC)c2C)c1C.O=S(=O)([N-]S(=O)(=O)C(F)(F)F)C(F)(F)F.O=S(=O)([N-]S(=O)(=O)C(F)(F)F)C(F)(F)F , what activity coefficient is on record?
0.49

For the compound CCCC(C)=O [pentan-2-one] + CCCOC[n+]1ccn(Cc2ccccc2)c1.O=S(=O)([N-]S(=O)(=O)C(F)(F)F)C(F)(F)F , what activity coefficient is on record?
0.4

For the compound Cc1ccccc1C [1,2-dimethylbenzene] + Cn1cc[n+](COCCCOC[n+]2ccn(C)c2)c1.N#C[N-]C#N.N#C[N-]C#N , what activity coefficient is on record?
8.25

For the compound CC(C)CO [2-methyl-1-propanol] + CCCOC[n+]1ccn(C)c1.N#C[N-]C#N , what activity coefficient is on record?
1.21

---

EXPERIMENT: activity coefficient (dimensionless); of the first substance listed, at infinite dilution; xn = mol fraction of the nth substance listed
TEST PARAMETERS: 343.15 K; Liquid; Chromatography; x1 = 0
MEASURE: activity coefficient
Reply briefly: the number, and no unit.

For the molecule Cc1cccc(C)c1 [1,3-dimethylbenzene] + CCCOC[n+]1ccn(C)c1.N#C[N-]C#N , what activity coefficient is on record?
6.41

For the molecule CCCCO [butan-1-ol] + CCCOC[n+]1ccn(C)c1.O=S(=O)([N-]S(=O)(=O)C(F)(F)F)C(F)(F)F , what activity coefficient is on record?
1.89

For the molecule C#CCCCCC [1-heptyne] + CCCCCCCCn1cc[n+](COCCC)c1C.O=S(=O)([N-]S(=O)(=O)C(F)(F)F)C(F)(F)F , what activity coefficient is on record?
1.62

---

EXPERIMENT: activity coefficient (dimensionless); of the first substance listed, at infinite dilution; xn = mol fraction of the nth substance listed
TEST PARAMETERS: 343.15 K; Liquid; Chromatography; x1 = 0
MEASURE: activity coefficient
Reply briefly: the number, and no unit.

For the molecule ClC(Cl)(Cl)Cl [tetrachloromethane] + CCCOC[n+]1ccn(Cc2ccccc2)c1.N#C[N-]C#N , what activity coefficient is on record?
2.67

For the molecule CCCCCCCCCCC [undecane] + CCCOC[n+]1ccn(C)c1.O=S(=O)([N-]S(=O)(=O)C(F)(F)F)C(F)(F)F , what activity coefficient is on record?
75.3

For the molecule CCO [ethanol] + CCCOC[n+]1ccn(C)c1.O=S(=O)([N-]S(=O)(=O)C(F)(F)F)C(F)(F)F , what activity coefficient is on record?
1.26

For the molecule C1CCCCC1 [cyclohexane] + CCCCCCCCn1cc[n+](COCCCOC[n+]2ccn(CCCCCCCC)c2C)c1C.O=S(=O)([N-]S(=O)(=O)C(F)(F)F)C(F)(F)F.O=S(=O)([N-]S(=O)(=O)C(F)(F)F)C(F)(F)F , what activity coefficient is on record?
2.11

For the molecule CCCCCCC [heptane] + CCCCCCCCn1cc[n+](COCCC)c1C.N#C[N-]C#N , what activity coefficient is on record?
7.95

For the molecule CCC[N+](=O)[O-] [1-nitropropane] + CCCCCCCCn1cc[n+](COCCCOC[n+]2ccn(CCCCCCCC)c2C)c1C.N#C[N-]C#N.N#C[N-]C#N , what activity coefficient is on record?
0.58

For the molecule CC1CCCC1 [methylcyclopentane] + CCCCCCCCn1cc[n+](COCCC)c1C.N#C[N-]C#N , what activity coefficient is on record?
4.16

For the molecule ClC(Cl)(Cl)Cl [tetrachloromethane] + CCCOC[n+]1ccn(C)c1.O=S(=O)([N-]S(=O)(=O)C(F)(F)F)C(F)(F)F , what activity coefficient is on record?
2.85

For the molecule C#CCCCCC [1-heptyne] + CCCOC[n+]1ccn(Cc2ccccc2)c1.F[B-](F)(F)F , what activity coefficient is on record?
8.28

For the molecule C1COCCO1 [1,4-dioxane] + CCCOC[n+]1ccn(Cc2ccccc2)c1.O=S(=O)([N-]S(=O)(=O)C(F)(F)F)C(F)(F)F , what activity coefficient is on record?
0.35

FYI, the data here is from the NIST ThermoML archive (doi:10.1016/j.fluid.2014.11.020).
